tested on: N-87 (human gastric cancer cells); experiment: MTT cancer cell growth inhibition; assay type: cell-based; conditions: Homo sapiens, 72 h, MTT, 72 hours incubation, N-87 cells; read-out: GI50 N-87
metric-name: GI50 (µM)

[[record]]
compound = "C/C=C1\\NC(=O)c2cc(SCCC)cc(n2)CNC(=O)C[C@@H](/C=C/CCSC(=O)CCCCCCC)OC(=O)[C@H](CC)NC1=O [Compound 175]"
target_or_test_system = "N-87 (human gastric cancer cells)"
units_symbol = "µM"
observed_value = 0.049


P = C/C=C1\NC(=O)c2cc(SCC)cc(n2)CNC(=O)C[C@@H](/C=C/CCSC(=O)CCCCC)OC(=O)[C@H](C(C)C)NC1=O [Compound 254]
Q = C/C=C1\NC(=O)c2cccc(n2)CNC(=O)C[C@@H](/C=C/CCSC(C)=O)OC(=O)[C@@H](C)NC1=O [Example 25]
input: Between P and Q , which one shows the smaller GI50 number? Provide the label of your selected option as the answer.
output: Q

I = C/C=C1\NC(=O)c2cccc(n2)CCNC(=O)C[C@@H](/C=C/CCS)OC(=O)[C@H](C(C)C)NC1=O [Compound 146]
II = C/C=C1\NC(=O)c2nc(ccc2F)CNC(=O)C[C@@H](/C=C/CCSC=O)OC(=O)[C@H](C(C)C)NC1=O [Example 51]
input: Smaller GI50 value? Options are I and II Use the label to indicate which entry you chose.
output: I

----------
tested on: HT1080 (human fibrosarcoma cells); experiment: MTT cancer cell growth inhibition; format: cell-based; conditions: Homo sapiens, HT-1080, 72 h, MTT, 72 hours incubation; read-out: GI50 HT1
metric-name: GI50 (nM)

[[record]]
compound = "C/C=C1\\NC(=O)c2nc(ccc2F)CNC(=O)C[C@@H](/C=C/CCSC(C)=O)OC(=O)[C@H](C)NC1=O [Example 63]"
metric_name = "GI50"
units_symbol = "nM"
observed_value = 90

[[record]]
compound = "C/C=C1\\NC(=O)c2cc(F)cc(n2)CCNC(=O)C[C@@H](/C=C/CCSC(C)=O)OC(=O)[C@H](C(C)C)NC1=O [Compound 104]"
metric_name = "GI50"
units_symbol = "nM"
observed_value = 90

[[record]]
compound = "C/C=C1\\NC(=O)c2cc(F)cc(n2)CNC(=O)C[C@@H](/C=C/CCS)OC(=O)[C@H](C)NC1=O [Compound 113]"
metric_name = "GI50"
units_symbol = "nM"
observed_value = 100


a = C/C=C1\NC(=O)c2nc(ccc2F)CNC(=O)C[C@@H](/C=C/CCSC(=O)CCC)OC(=O)[C@H](C(C)C)NC1=O [Example 42]
b = CC(=O)SCC/C=C/[C@@H]1CC(=O)NCc2cc(F)cc(n2)C(=O)NC(=C(C)C)C(=O)N[C@@H](C(C)C)C(=O)O1 [Compound 88]
c = C/C=C1\NC(=O)c2cccc(n2)CNC(=O)C[C@@H](/C=C/CCSC(C)=O)OC(=O)[C@H](Cc2ccc(O)cc2)NC1=O [Compound 18]
d = C/C=C1\NC(=O)c2cccc(n2)CNC(=O)C[C@@H](/C=C/CCSC(C)=O)OC(=O)[C@H](CCCCNC(=O)OCC2c3ccccc3-c3ccccc32)NC1=O [Compound 16]
input: Ascending by GI50, please. # output: labels, in the requested order
output: a, b, d, c
(a: 40 nM, b: 60 nM, d: 1300 nM, c: 10800 nM)

----------
system: K562 (human leukemia cells); assay: MTT cancer cell growth inhibition; type: cell-based; conditions: Homo sapiens, K562, 72 h, MTT, 72 hours incubation, K562 cells; read-out: GI50 K562
metric-name: GI50 (nM)

[[record]]
smi = "CC(=O)SCC/C=C/[C@@H]1CC(=O)NCc2cccc(n2)C(=O)NC(=C(C)C)C(=O)N[C@@H](C(C)C)C(=O)O1"
metric_name = "GI50"
units_symbol = "nM"
observed_value = 24


a = C/C=C1\NC(=O)c2nc(ccc2SC)CNC(=O)C[C@@H](/C=C/CCSC(C)=O)OC(=O)[C@H](CCCCN)NC1=O
b = C/C=C1\NC(=O)c2nccc(n2)CNC(=O)C[C@@H](/C=C/CCS)OC(=O)[C@H](C)NC1=O
c = C/C=C1\NC(=O)c2cccc(n2)CNC(=O)C[C@@H](/C=C/CCSC(=O)CC)OC(=O)[C@H](C(C)C)NC1=O
input: Order the entries by their reported GI50, beginning at the minimum. Answer by naming the labels in the order asked.
output: b, a, c

----------
system: N-87 (human gastric cancer cells); assay: MTT cancer cell growth inhibition; type: cell-based; conditions: Homo sapiens, 72 h, MTT, 72 hours incubation, N-87 cells; read-out: GI50 N-87
metric-name: GI50 (nM)

[[record]]
molecule = "C/C=C1\\NC(=O)c2ccc(F)c(n2)CNC(=O)C[C@@H](/C=C/CCSC(=O)CCCCCCC)OC(=O)[C@H](Cc2ccccc2)NC1=O [Example 71]"
metric_name = "GI50"
units_symbol = "nM"
observed_value = 55

[[record]]
molecule = "C/C=C1\\NC(=O)c2ccc(F)c(n2)CNC(=O)C[C@@H](/C=C/CCSC(=O)CCCCCCC)OC(=O)[C@H](C(C)C)NC1=O [Example 32]"
metric_name = "GI50"
units_symbol = "nM"
observed_value = 69

[[record]]
molecule = "C/C=C1\\NC(=O)c2cc(F)cc(n2)CNC(=O)C[C@@H](/C=C/CCSC(=O)CCCCC)OC(=O)[C@H](C(C)C)NC1=O [Example 37]"
metric_name = "GI50"
units_symbol = "nM"
observed_value = 41

[[record]]
molecule = "C/C=C1\\NC(=O)c2cc(SC)cc(n2)CNC(=O)C[C@@H](/C=C/CCSC(=O)CC)OC(=O)[C@H](C(C)C)NC1=O [Compound 163]"
metric_name = "GI50"
units_symbol = "nM"
observed_value = 39

[[record]]
molecule = "C/C=C1\\NC(=O)c2cc(F)cc(n2)CNC(=O)C[C@@H](/C=C/CCSC(=O)CCCC)OC(=O)[C@H](C(C)C)NC1=O [Compound 40]"
metric_name = "GI50"
units_symbol = "nM"
observed_value = 71

[[record]]
molecule = "C/C=C1\\NC(=O)c2ccc(F)c(n2)CNC(=O)C[C@@H](/C=C/CCSC(=O)CCCCCCC)OC(=O)[C@H](CC)NC1=O [Example 56]"
metric_name = "GI50"
units_symbol = "nM"
observed_value = 42

[[record]]
molecule = "C/C=C1\\NC(=O)c2ccc(F)c(n2)CNC(=O)C[C@@H](/C=C/CCSC(C)=O)OC(=O)[C@H](Cc2ccc(O)cc2)NC1=O [Compound 83]"
metric_name = "GI50"
units_symbol = "nM"
observed_value = 16

[[record]]
molecule = "C/C=C1\\NC(=O)c2nc(ccc2F)CNC(=O)C[C@@H](/C=C/CCSC(=O)CCCCCCC)OC(=O)[C@H](C)NC1=O [Example 60]"
metric_name = "GI50"
units_symbol = "nM"
observed_value = 63

[[record]]
molecule = "C=C1NC(=O)c2ccc(SC)c(n2)CNC(=O)C[C@@H](/C=C/CCSC(C)=O)OC(=O)[C@H](C(C)C)NC1=O [Compound 206]"
metric_name = "GI50"
units_symbol = "nM"
observed_value = 97

[[record]]
molecule = "C/C=C1\\NC(=O)c2cccc(n2)CNC(=O)C[C@@H](/C=C/CCS)OC(=O)[C@H](C)NC1=O [Example 29]"
metric_name = "GI50"
units_symbol = "nM"
observed_value = 33


I = C/C=C1\NC(=O)c2cc(F)cc(n2)CNC(=O)C[C@@H](/C=C/CCS)OC(=O)[C@H](CCCCNC(=O)OCC2c3ccccc3-c3ccccc32)NC1=O [Compound 121]
II = C/C=C1\NC(=O)c2nc(ccc2SC)CNC(=O)C[C@@H](/C=C/CCSC(=O)CCCCCCC)OC(=O)[C@H](CC)NC1=O [Compound 171]
input: Of the two listed items, I and II , which carries the larger GI50 figure? Give the label of your selection.
output: II
(II: 39 nM, I: 23 nM)

----------
tested on: HCC827 (human non-small cell lung cancer cells); experiment: MTT cancer cell growth inhibition; type: cell-based; conditions: Homo sapiens, HCC827, 72 h, MTT, 72 hours incubation, HCC827 cells; read-out: GI50 HCC827
metric-name: GI50 (nM)

[[record]]
smi = "C/C=C1\\NC(=O)c2cc(F)cc(n2)CNC(=O)C[C@@H](/C=C/CCSC(C)=O)OC(=O)[C@@H](C)NC1=O"
units_symbol = "nM"
observed_value = 39

[[record]]
smi = "C=C1NC(=O)c2ccc(SC)c(n2)CNC(=O)C[C@@H](/C=C/CCSC(C)=O)OC(=O)[C@H](C(C)C)NC1=O"
units_symbol = "nM"
observed_value = 12

[[record]]
smi = "C/C=C1\\NC(=O)c2ccc(SC)c(n2)CNC(=O)C[C@@H](/C=C/CCSC(C)=O)OC(=O)[C@@H](C)NC1=O"
units_symbol = "nM"
observed_value = 63

[[record]]
smi = "C=C1NC(=O)c2cccc(n2)CNC(=O)C[C@@H](/C=C/CCSC(=O)CCCCCCC)OC(=O)[C@H](C(C)C)NC1=O"
units_symbol = "nM"
observed_value = 28

[[record]]
smi = "C=C1NC(=O)c2cccc(n2)CNC(=O)C[C@@H](/C=C/CCSC(C)=O)OC(=O)[C@H](C(C)C)NC1=O"
units_symbol = "nM"
observed_value = 48


a = C/C=C1\NC(=O)c2cc(SC)cc(n2)CNC(=O)C[C@@H](/C=C/CCS)OC(=O)[C@H](C(C)C)NC1=O
b = CC(=O)SCC/C=C/[C@@H]1CC(=O)NCc2cc(F)cc(n2)C(=O)NC(=C(C)C)C(=O)N[C@@H](C(C)C)C(=O)O1
input: From the items above, decide which of a and b has the lower GI50 reading. Answer by quoting the chosen item's label.
output: a

Data provenance: patent US10065990B2
